Target: Protein farnesyltransferase (Homo sapiens, UniProt P49354+P49356)
Assay: Inhibition of Farnesyl transferase inhibitor (ABT-839)
recorded-metric: IC50 (nM)

>>> result_number("Cn1cncc1C(OCc1ccc(C#N)c(NCC2CCCO2)n1)c1ccc(C#N)c(-c2ccccc2C(F)(F)F)c1 (stereo unspecified)")
1.1

====

Target: Geranylgeranyl transferase type I (Bos taurus, UniProt P29702+Q5EAD5)
Assay: Inhibition of Bovine geranylgeranyl transferase
pIC50: −log10 of the molar value.
Reported pIC50 values are given for each entry in this list.
recorded-metric: pIC50

>>> result_number("Cn1cncc1C(OCc1ccc(C#N)cc1)c1ccc(C#N)c(-c2ccccc2CO)c1 (stereo not drawn)")
6.32
>>> result_number("CN1CCN(c2nc(COC(c3ccc(C#N)c(-c4ccccc4C(F)(F)F)c3)c3cncn3C)ccc2C#N)CC1 (stereo not drawn)")
5.59
>>> result_number("Cn1cncc1C(OCc1ccc(C#N)c(N2CCCC(O)C2)n1)c1ccc(C#N)c(-c2ccccc2C(F)(F)F)c1 (stereo not drawn)")
5.85
>>> result_number("Cn1cncc1C(OCc1ccc(C#N)c(NCC2CCOC2)n1)c1ccc(C#N)c(-c2ccccc2C(F)(F)F)c1 (stereo not drawn)")
5.66
>>> result_number("Cn1cncc1C(OCc1ccc(C#N)c(N2CCC[C@@H]2C(=O)O)n1)c1ccc(C#N)c(-c2ccccc2C(F)(F)F)c1 (stereo partly drawn)")
6.17
>>> result_number("Cn1cncc1C(OCc1ccc(Cl)c(Cl)c1)c1ccc(C#N)c(-c2ccccc2C(F)(F)F)c1 (stereo not drawn)")
7.14
>>> result_number("Cc1ccccc1-c1cc(C(OCc2ccccc2)c2cncn2C)ccc1C#N (stereo not drawn)")
5.89
>>> result_number("COC(=O)c1ccc(COC(c2ccc(C#N)c(-c3ccccc3C(F)(F)F)c2)c2cncn2C)nc1 (stereo not drawn)")
5.41

====

Biological target: Protein farnesyltransferase (Bos taurus, UniProt P29702+P49355)
Assay: Inhibition of Bovine farnesyl transferase
pIC50: −log10 of the molar value.
recorded-metric: pIC50

>>> result_number("COC(=O)c1ccc(COC(c2ccc(C#N)c(-c3ccccc3C(F)(F)F)c2)c2cncn2C)nc1 (centres undefined)")
8.05
>>> result_number("Cn1cncc1C(OCc1ccc(C#N)c(NCC2CCOC2)n1)c1ccc(C#N)c(-c2ccccc2C(F)(F)F)c1 (centres undefined)")
8.11
>>> result_number("CN1CCN(c2nc(COC(c3ccc(C#N)c(-c4ccccc4C(F)(F)F)c3)c3cncn3C)ccc2C#N)CC1 (centres undefined)")
8.92
>>> result_number("Cn1cncc1C(OCc1ccc(C#N)c(NCC2CCCO2)n1)c1ccc(C#N)c(-c2ccccc2C(F)(F)F)c1 (centres undefined)")
8.12
>>> result_number("Cc1ccccc1-c1cc(C(OCc2cccc(I)c2)c2cncn2C)ccc1C#N (centres undefined)")
7.70
>>> result_number("Cn1cncc1C(OCc1ccc(C#N)cn1)c1ccc(C#N)c(-c2ccccc2C(F)(F)F)c1 (centres undefined)")
8.57
>>> result_number("Cc1ccccc1-c1cc(C(OCc2csc(-c3ccc(Cl)cc3)n2)c2cncn2C)ccc1C#N (centres undefined)")
7.54
>>> result_number("Cc1ccccc1-c1cc(C(OCc2cc(Cl)cc(Cl)c2)c2cncn2C)ccc1C#N (centres undefined)")
7.72
>>> result_number("Cc1ccccc1-c1cc(C(OCc2ccc([N+](=O)[O-])cc2)c2cncn2C)ccc1C#N (centres undefined)")
8.12
>>> result_number("Cn1cncc1C(OCc1ccc(C#N)c(N2CCC(O)C2)n1)c1ccc(C#N)c(-c2ccccc2C(F)(F)F)c1 (centres undefined)")
8.46
>>> result_number("Cc1ccccc1-c1cc(C(OCc2ccc(C(C)C)cc2)c2cncn2C)ccc1C#N (centres undefined)")
7.29
>>> result_number("Cc1ccccc1-c1cc(C(OCc2ccc(C(C)(C)C)cc2)c2cncn2C)ccc1C#N (centres undefined)")
7.06
>>> result_number("Cc1ccccc1-c1cc(C(OCc2ccc(I)cc2)c2cncn2C)ccc1C#N (centres undefined)")
7.89
>>> result_number("Cc1ccccc1-c1cc(C(OCc2cccc3cccnc23)c2cncn2C)ccc1C#N (centres undefined)")
7.23
>>> result_number("Cn1cncc1C(OCc1ccc(C#N)cc1)c1ccc(C#N)c(-c2ccccc2C=O)c1 (centres undefined)")
8.72
>>> result_number("Cc1ccccc1-c1cc(C(OCc2ccc(OC(F)(F)F)cc2)c2cncn2C)ccc1C#N (centres undefined)")
7.80
>>> result_number("Cc1ccccc1-c1cc(C(OCc2cccc(OC(F)(F)F)c2)c2cncn2C)ccc1C#N (centres undefined)")
8.08
>>> result_number("Cc1ccccc1-c1cc(C(OCc2ccc(-c3ccccc3)cc2)c2cncn2C)ccc1C#N (centres undefined)")
7.89
>>> result_number("Cc1ccccc1-c1cc(C(OCc2cccc3ccccc23)c2cncn2C)ccc1C#N (centres undefined)")
7.77
